Target: beta-catenin (human)
Sequence (B6V8E6 146-665 limits assumed): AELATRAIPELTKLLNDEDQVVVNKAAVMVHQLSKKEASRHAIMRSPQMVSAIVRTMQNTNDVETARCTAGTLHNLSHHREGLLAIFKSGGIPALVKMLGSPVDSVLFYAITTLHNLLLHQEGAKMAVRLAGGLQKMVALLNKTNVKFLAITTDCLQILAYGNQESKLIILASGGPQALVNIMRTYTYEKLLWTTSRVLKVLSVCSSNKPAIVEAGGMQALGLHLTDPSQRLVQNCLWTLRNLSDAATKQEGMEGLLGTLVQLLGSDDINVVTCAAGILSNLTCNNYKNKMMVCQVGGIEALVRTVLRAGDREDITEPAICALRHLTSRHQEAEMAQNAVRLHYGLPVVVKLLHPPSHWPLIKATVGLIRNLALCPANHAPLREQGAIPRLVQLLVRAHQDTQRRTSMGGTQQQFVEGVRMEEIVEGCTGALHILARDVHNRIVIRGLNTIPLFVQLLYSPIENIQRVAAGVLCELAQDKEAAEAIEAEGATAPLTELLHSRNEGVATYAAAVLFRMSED
Test: cell-based or functional assay
*1 amine or outer side, *2 acyl side, *3 side chain or, on linkers, in order; H or OH if unused. Bridges are numbered along the chain shown (N, C = ends). Primed or numbered codes have the meaning given here. [ ]: non-standard residue; d: D form. PyrS2(3) = (S)-3-amino-1-((pent-4-en-1-yloxy)carbonyl)pyrrolidine-3-carboxylic acid, olefin residue, C=CCCCOC(=O)N1CC[C@@](N[*:1])(C(=O)[*:2])C1; B5(3) = 2-amino-2-(pent-4-en-1-yl)hept-6-enoic acid, two olefin arms, C=CCCCC(CCCC=C)(N[*:1])C(=O)[*:2]; 2F3MeF″ = aromatic residue, Cc1cccc(C[C@H](N[*:1])C(=O)[*:2])c1F; Phe(3-COOH) = N[C@@H](Cc1cccc(C(=O)O)c1)C(=O)O; Bta = N[C@@H](Cc1csc2ccccc12)C(=O)O; αAllylPro = C=CC[C@@]1(C(=O)O)CCCN1; tBuAla = CC(C)(C)C[C@H](N)C(=O)O; GlnR = not defined here; Aib = CC(C)(N)C(=O)O
Observable: NanoBRET Abs IC50 (bin >1.5 uM)

Field request: NanoBRET Abs IC50 (bin >1.5 uM) | item: Ac-[αAllylPro]D[tBuAla][B5(3)]D[Phe(3-COOH)][Aib]AFK[PyrS2(3)][2F3MeF″][Bta][GlnR]A-NH2 (bridge 10-14; not fully specified (bridges); printed as Ac-PL3-Asp-Npg-B5-Asp-3COOHF-Aib-Ala-Phe-Lys*3-PyrS2-2F3MeF-BztA-GlnR*3-Ala-NH2; reading uncertain) [I-68]
< 3000 nM
